Assay: yeast display, Sf9 membrane polyspecificity reagent, FACS + sequencing; frameworks hold sequencing errors
test.readout: polyreactivity (PSR sort gate)

Record excerpt, results attached:
QVQLVESGGGLVQAGGSLRLSCAASGRIFGRNTMGWYRQAPGKERELVAVISFRGGSTYADSVKGRFTISRDNAKNTVYLQMNSLKPEDTAVYYCARTAYSTRPYRFDYWGQGTQVTVSS : high polyreactivity
QVQLVESGGGLVQAGGSLRLSCAASGSIFYYNAMGWYRQAPGKERELVATIRSGGNTNYADSVKGRFTISRDNAKNTVYLQMNSLKPEDTAVYYCAARGAYHGYRYDSWGQGTQVTVSS : low polyreactivity
QVQLVESGGGLVQAGGSLRLSCAASGNIFTTYAMGWYRQAPGKERELVAAISRTGGRTSYADSVKGRFTISRDNAKNTVYLQMNSLKPEDTAVYYCAAVPTVRPSAPRARILSDYWGQGTQVTVSS : high polyreactivity
QVQHVESGGGLVQAGGSLRLSCAASGRTFAWYAMGRYRQAPGKERELVAAISSGGSTYYADSVKGRFTISRDNAKNTVYLQMNSLKPEDTAVYYCAAEWHYIYAYDYWGQGTQVTVSS : low polyreactivity

INPUT: Reported polyreactivity (PSR sort gate), sequence QVQLVESGGGLVQAGGSLRLSCAASGSTFWDYAMGWYRQAPGKERELVAAINSGDSTNYADSVKGRFTISRDNAKNTVYFQMNSLKPEDTAVYYCNVDWYDKGYGGYDYWGQGTQVTVSS : ____
OUTPUT: low polyreactivity

---

Test: yeast display, Sf9 membrane polyspecificity reagent, FACS + sequencing; frameworks hold sequencing errors
test.readout: polyreactivity (PSR sort gate)

QVQLVESGGGLVQAGGSLRLSCAASGFTFSGNAMGWYRQAPGKERELVAAITTTGVRTYYADSVKGRFTISRDNAKNTVYLQMNSLKPEDTAVYYCNKKRTQRVPVRYDYWGQGTQVTVSS : high polyreactivity
QVQLVESGGGLVQAGGSLRLSCAASGRTFKWYAMGLYRQAPGKEREFVAGISRGAGRTYYADSVKGRFTISRDNAKNTVYLQMNSLKPEDTAVYYCAAVPSYHSTSPFYYWGQGTQVTVSS : high polyreactivity
QVQLVESGGGLVQAGGSLRLSCAASGSTFSIYAMGWYRQAPGKERELVAAISFSDASTYYADSVKGRFTISRDNAKNTVYLQMNSLKPEDTAVYYCAAVVGAFKRRFYYWGQGTQVTVSS : high polyreactivity
QVQLVESGGGLVQAGGSLRLSCAASGFTIYRYALGGYRPAPGKERELVAAISKSGVSTYYADSVKGRFTISRDNAKNTVYLLMNSLKPEDTAVYYCAVSLTYRWISFDYWGQGTQVTVSS : high polyreactivity

---

Assay: yeast display, Sf9 membrane polyspecificity reagent, FACS + sequencing; frameworks hold sequencing errors
test.readout: polyreactivity (PSR sort gate)

QVQLVESGGGLVQAGGSLRLSCAASGFIFGSYAMGWYRQAPGKERELVAAITSDGNTDYADSVKGRFTISRDNAKNTVYLQMNSLKPEDTAVYYCATDWVDHYDYWGQGTQVTVSS : low polyreactivity
QVQLVESGGGLVQAGGSLRLRCAASGITFPNYAMGWYRQAPGKERELVAAISSGGSTTYADSVKGRFTISRDNAKNTVYLQMNSLKPEDTAVYYCNADISAHYVIGVPTGYYWGQGTQVTVSS : low polyreactivity
QVQLVESGGGLVQAGGSLRLSCAASGFTFQKYAMGWYRQAPGKERELVAAISSSGGRTYYADSVKGRFTISRDNAKNTVYLQMNSLKPEDTAVYYCNAVPGYVYYYQYWGQGTQVTVSS : high polyreactivity
QVQVVESGGGLVQAGGSLRLSCAASGRTFDWYLMGWYRQAPGKERELVASIRGTGSTYYADSVKGRFTISRDNAKNTVYLQMNSLKAEDTAVYYCAARPGFLYSKYNYWGQGTQVTVSS : high polyreactivity
QVQLQDSGGGLVQAGGSLRLSCAASGSISIYGYMGWYRQAPGNERELVAAITAGGSTYYADSVKGRFTISRDNAKNTVYLLMKSLKPEDTAVYYCAPYEQRVYDLHYWGQGTQVTVSS : high polyreactivity

Would you mind listing polyreactivity (PSR sort gate) for each of the following sequences?
1. QVQLVESGGGLVQAGGSLRLSCAASGSTLGLNAMGWYRKAPGKERELVAAISQSGTSTYYADSVKGRFTISRDNAKNTVYLQMNSLKPEDTAVYYCAVEYTQWWTYDYWGQGTQVTVSS
2. QVQLVESGGGLVQAGGSLRLSCAASGFTFNANAMGWYRQAPGKERELVAVITRSGGRTYYADSVKGRFTISRDNAKNTVYLQMNSLKPEDTEVYYCAKECPSRVYQGTDSASDYWGQGTQVTVSS
3. QVQLVESGGGLVQAGGSLRLSCAASGRTFRHNALGWYRQAPGKERELVAAISKSGGRTYYADSVKGRFTISRDNAKNTVYLQMNSLKPEDTAVYYCAAPLYVSTSGEVGYWGQGTQVTVSS
4. QVQLVESGGGLVHAGGSLRLSCAASGRTFYRYGMGWYREARGKERELVAAISNRGGTTYYADSLKGRFTISRDNAKNTVYLQMNSLKPEDTAVYYCAADSVYAEYDSWGQGTQVTVSS

OUTPUT:
low polyreactivity
high polyreactivity
high polyreactivity
low polyreactivity

The reported measurements were obtained from the nanobody polyreactivity screen of Harvey et al. (2022).
